# TEST_TARGET: CDGSH iron-sulfur domain-containing protein 2 (Homo sapiens, UniProt Q8N5K1)
# PROTOCOL_NOTES: Activation of Cisd2 (unknown origin) transfected in HEK293 cells incubated for 24 hrs by one-glo luciferase assay
READOUT_NAME: EC50 (nM)
Hi! Could you send only the number? It should be in nM, unit omitted.

Answered examples (5):
Form: item COC(=O)c1c(N)sc(C(=O)Nc2ccc(C(F)(F)F)cc2)c1C ; test system CDGSH iron-sulfur domain-containing protein 2 (Homo sapiens, UniProt Q8N5K1); EC50: 252

// EC50 (CDGSH iron-sulfur domain-containing protein 2 (Homo sapiens, UniProt Q8N5K1)) for COC(=O)c1c(N)sc(C(=O)Nc2ccc(C)cc2)c1C = 10

Let me check: COC(=O)c1c(NC(C)=O)sc(C(=O)Nc2ccc(C)cc2C)c1C , system CDGSH iron-sulfur domain-containing protein 2 (Homo sapiens, UniProt Q8N5K1), measured EC50 is 4440

Sample COC(=O)c1c(N)sc(C(=O)Nc2ccc(O)cc2)c1C , system: CDGSH iron-sulfur domain-containing protein 2 (Homo sapiens, UniProt Q8N5K1). Its EC50 is 191

Bench note, CDGSH iron-sulfur domain-containing protein 2 (Homo sapiens, UniProt Q8N5K1): entry Cc1ccc(NC(=O)c2sc(N)c(C(=O)CO)c2C)c(C)c1 , its EC50 = 809

Here is the next item to consider.
Here COC(=O)c1c(N)sc(C(=O)Nc2cccc(C)c2)c1C was tested on CDGSH iron-sulfur domain-containing protein 2 (Homo sapiens, UniProt Q8N5K1), and its EC50 came to 35

----------
# PROTOCOL_NOTES: Metabolic stability in mouse liver microsomes assessed as parent compound remaining at 5 uM in presence of NADPH-generating system measured for 30 mins by LC/MS analysis
# Type: ADME, Microsome
# CONDITION_DESCRIPTION: read-out: Stability
READOUT_NAME: remaining at 0.5 h, 5 µM (%)
Use % as the unit, but write only the number.

Memo: COC(=O)c1c(N)sc(C(=O)Nc2ccc(O)cc2)c1C , reported remaining at 0.5 h, 5 µM: 91.8

// field: remaining at 0.5 h, 5 µM; key: COC(=O)c1c(N)sc(C(=O)Nc2ccc(C#N)cc2)c1C ; value = 83.7

# remaining at 0.5 h, 5 µM of COC(=O)c1c(N)sc(C(=O)Nc2ccc(F)cc2)c1C = 84.9

Please find the next molecule below.
Recorded remaining at 0.5 h, 5 µM (molecule COC(=O)c1c(N)sc(C(=O)Nc2ccccc2)c1C ): 63.5

----------
# PROTOCOL_NOTES: Metabolic stability in mouse liver microsomes assessed as parent compound remaining at 5 uM in presence of NADPH-generating system measured for 30 mins by LC/MS analysis
# Format: ADME, Microsome
# CONDITION_DESCRIPTION: read-out: Stability
READOUT_NAME: remaining at 0.5 h, 5 µM
In your response, the unit should come after the numeric value.

Illustrative cases are given below, each with its answer.
remaining at 0.5 h, 5 µM in this record for COC(=O)c1c(N)sc(C(=O)Nc2ccc(C)cc2C)c1C : 27.6%

The compound listed as COC(=O)c1c(N)sc(C(=O)Nc2ccc(N(C)C)cc2)c1C has a reported remaining at 0.5 h, 5 µM of 54.7%

Summary for this compound, COC(=O)c1c(N)sc(C(=O)Nc2nccs2)c1C : remaining at 0.5 h, 5 µM is 44.5%

According to the records, this compound COC(=O)c1c(N)sc(C(=O)Nc2cccc(OC)c2)c1C displays remaining at 0.5 h, 5 µM of 59.2%

# compound COC(=O)c1c(N)sc(C(=O)Nc2ccccc2C)c1C ; its remaining at 0.5 h, 5 µM = 53.3%

Could you now consider this next compound?
Noted for CC(=O)c1c(N)sc(C(=O)Nc2ccc(F)cc2)c1C : its remaining at 0.5 h, 5 µM reads 49.2%

----------
# TEST_TARGET: CDGSH iron-sulfur domain-containing protein 2 (Homo sapiens, UniProt Q8N5K1)
# Sequence (Q8N5K1 whole entry): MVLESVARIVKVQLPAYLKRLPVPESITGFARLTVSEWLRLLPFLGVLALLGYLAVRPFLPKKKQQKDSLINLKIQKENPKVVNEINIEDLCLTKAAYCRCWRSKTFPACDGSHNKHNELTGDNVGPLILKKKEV
# PROTOCOL_NOTES: Activation of Cisd2 (unknown origin) transfected in HEK293 cells incubated for 24 hrs by one-glo luciferase assay
pEC50: −log10 of the molar value.
Given measured pEC50, output rule met if it is greater than or equal to 7 and rule not met if not.

Q: Hi, just wondering whether Cc1ccc(NC(=O)c2sc(N)c(C#N)c2C)c(C)c1 shows pEC50 of 7 or higher.
Ans: rule not met

Q: # bool: pEC50 of Cc1ccc(NC(=O)c2sc(N)c(C(N)=O)c2C)c(C)c1 >= 7
Ans: rule not met

Q: Reported pEC50 at or above 7? COC(=O)c1c(N)sc(C(=O)Nc2ccc(C)cc2C)c1C
Ans: rule met

Q: Item COC(=O)c1c(N)sc(C(=O)Nc2cccnc2)c1C with pEC50 of 7 or above?
Ans: rule not met

----------
EC50 overview
# TEST_TARGET: CDGSH iron-sulfur domain-containing protein 2 (Homo sapiens, UniProt Q8N5K1)
# PROTOCOL_NOTES: Activation of Cisd2 (unknown origin) transfected in HEK293 cells incubated for 24 hrs by one-glo luciferase assay
Kindly provide the numeric value in µM only, without the unit symbol.

// recorded EC50 for COC(=O)c1c(N)sc(C(=O)Nc2ccccc2OC)c1C : 3.07

Sample COC(=O)c1c(N)sc(C(=O)Nc2c(C)cc(C)cc2C)c1C ; EC50 observed: 1.7

Quick note, EC50 for CC(=O)c1c(N)sc(C(=O)Nc2ccccc2)c1C landed at 0.553

For reference, reported EC50 for Cc1ccc(NC(=O)c2sc(N)c(C(=O)OC(C)(C)C)c2C)c(C)c1 stands at 1.34

----------
# PROTOCOL_NOTES: Metabolic stability in mouse liver microsomes assessed as parent compound remaining at 5 uM in presence of NADPH-generating system measured for 30 mins by LC/MS analysis
# Type: ADME, Microsome
# CONDITION_DESCRIPTION: read-out: Stability
READOUT_NAME: remaining at 0.5 h, 5 µM (%)
Express your answer in %, writing the number without its unit.

Noted for CCOC(=O)c1c(N)sc(C(=O)Nc2ccc(C)cc2C)c1C : its remaining at 0.5 h, 5 µM reads 60.6

Kindly note the recorded remaining at 0.5 h, 5 µM for CC(=O)c1c(N)sc(C(=O)Nc2ccc(C)cc2C)c1C , which is 0

get_value(item= COC(=O)c1c(N)sc(C(=O)Nc2cccc(C)c2)c1C , readout=remaining at 0.5 h, 5 µM) returns 53.8

---
The reported value for COC(=O)c1c(N)sc(C(=O)Nc2ccc(C)cc2)c1C in terms of remaining at 0.5 h, 5 µM is 73.2

For reference, reported remaining at 0.5 h, 5 µM for COC(=O)c1c(N)sc(C(=O)Nc2ccc(OC)cc2)c1C stands at 73.6

----------
In this section, each of the compounds is paired with its reported pEC50.
# TEST_TARGET: CDGSH iron-sulfur domain-containing protein 2 (Homo sapiens, UniProt Q8N5K1)
# Sequence (Q8N5K1 whole entry): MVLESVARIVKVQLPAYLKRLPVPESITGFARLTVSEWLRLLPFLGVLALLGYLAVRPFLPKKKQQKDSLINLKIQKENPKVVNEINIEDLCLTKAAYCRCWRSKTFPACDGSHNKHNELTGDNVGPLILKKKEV
# PROTOCOL_NOTES: Activation of Cisd2 (unknown origin) transfected in HEK293 cells incubated for 24 hrs by one-glo luciferase assay
pEC50 is defined as minus the log10 of a concentration measured in mol/L.

The compound identified as CC(=O)c1c(N)sc(C(=O)Nc2ccc(F)cc2)c1C registered its pEC50 at 6.80

More entries:
Cc1ccc(NC(=O)c2sc(N)c(C(=O)O)c2C)c(C)c1 has a reported pEC50 of 6.53

The compound identified as COC(=O)c1c(N)sc(C(=O)Nc2ccc(OC)cc2)c1C registered its pEC50 at 7.92

The compound CCOC(=O)c1c(N)sc(C(=O)Nc2ccc(C)cc2C)c1C showed pEC50 equal to 6.71

Note to self: pEC50 recorded for COC(=O)c1c(N)sc(C(=O)Nc2ccc(C#N)cc2)c1C was 7.09

// COC(=O)c1cc(C(=O)Nc2ccc(C)cc2C)sc1N : pEC50 value = 5.68

----------
# TEST_TARGET: CDGSH iron-sulfur domain-containing protein 2 (Homo sapiens)
# PROTOCOL_NOTES: Activation of Cisd2 (unknown origin) transfected in HEK293 cells incubated for 24 hrs by one-glo luciferase assay
READOUT_NAME: pEC50
The scale used: pEC50 is minus the common logarithm of the concentration in molar units.

Use the examples below as a reference point.
The compound identified as Cc1ccc(NC(=O)c2sc(N)c(C(=O)OC(C)C)c2C)c(C)c1 registered its pEC50 at 5.82

Recorded pEC50 (compound COC(=O)c1c(N)sc(C(=O)Nc2nccs2)c1C ): 6.82

Per the records, this compound ( COC(=O)c1c(N)sc(C(=O)Nc2ccc(F)cc2)c1C ) has pEC50 equal to 7.47

***
Notebook: COC(=O)c1c(N)sc(C(=O)Nc2ccccc2)c1C , pEC50 read as 7.02

Recorded pEC50 (compound COC(=O)c1c(N)sc(C(=O)Nc2ccc(N(C)C)cc2)c1C ): 7.46

Entry CC(=O)c1c(N)sc(C(=O)Nc2ccc(C)cc2C)c1C , pEC50 reported as 6.79

# pEC50 (compound: Cc1ccc(NC(=O)c2sc(N)c(C(=O)NCC#N)c2C)c(C)c1 ) is 5.80

Entry under test: COC(=O)c1c(N)sc(C(=O)Nc2ccccc2C)c1C . Its pEC50 was 6.63

Reported pEC50 ( COC(=O)c1c(N)sc(C(=O)Nc2cc(OC)c(OC)c(OC)c2)c1C ) = 5.66

Consider COC(=O)c1c(N)sc(C(=O)Nc2cccc(OC)c2)c1C . Its measured pEC50 is 7.64
